- Tested on: Worker's carcinosarcoma
- protocol notes: Inhibition of tumor growth in implanted tumors
- Assay type: in vivo, mice and rats
- test settings: dose 50 mg/kg
Labelling field: enter condition met if recorded Inhibition of Tumour Growth, % - Worker's carcinosarcoma is less than 50%. Enter condition not met if it equals or exceeds that cut-off.

INSERT INTO assay_data (molecule, group_label) VALUES
  ('CN(C)CC1C(=O)OC2C1CCC1(C)OC13CC1OC1(C)C23 (centres unmarked) [Dimethylaminoepoxyarglabin (15b), dimethylaminoepoxyarglabin]', 'condition met'),
  ('C=C1C(=O)OC2C1CCC1(C)OC13CC(Br)C(C)(Br)C23 (centres unmarked)', 'condition met'),
  ('C=C1C(=O)OC2C1CCC(C)(Cl)C1(O)CC(Cl)C(C)(O)C21 (centres unmarked) [Dichlordihydroxyarglabin (3)]', 'condition not met'),
  ('CC1=CCC23OC2(C)CCC2C(CN(C)C)C(=O)OC2C13 (centres unmarked) [Dimethylaminoarglabin (14b), dimethylaminoarglabin]', 'condition met');

---

- System: Sarcoma-45
- protocol notes: Inhibition of tumor growth in implanted tumors
- Type: in vivo, rats
- test settings: dose 50 mg/kg
# Inhibition of Tumour Growth, % - Sarcoma-45 listing for each entry below
measured endpoint: Inhibition of Tumour Growth, % - Sarcoma-45 (%)

INSERT INTO measurements (molecule, quantitative_readout) VALUES
  ('CN(C)CC1C(=O)OC2C1CCC1(C)OC13CC1OC1(C)C23.Cl (stereo not drawn) [dimethylaminoepoxyarglabin hydrochloride]', 32.4),
  ('CC1=CCC23OC2(C)CCC2C(CN(C)C)C(=O)OC2C13 (stereo not drawn) [Dimethylaminoarglabin (14b), dimethylaminoarglabin]', 79.0),
  ('CN(C)CC1C(=O)OC2C1CCC1(C)OC13CC1OC1(C)C23 (stereo not drawn) [Dimethylaminoepoxyarglabin (15b), dimethylaminoepoxyarglabin]', 58.1),
  ('C=C1C(=O)OC2C1CCC1(C)OC13CC(Br)C(C)(Br)C23 (stereo not drawn)', 74.2),
  ('C=C1C(=O)OC2C1CCC(C)(Cl)C1(O)CC(Cl)C(C)(O)C21 (stereo not drawn) [Dichlordihydroxyarglabin (3)]', 70.9);

---

- Test system: Leucemia P-388
- protocol notes: Implanted leukemia, inhibition / survival
- Type: in vivo, mice and rats
- test settings: dose 50 mg/kg
# Inhibition of Tumour Growth, % - Leucemia P-388 PALT listing for each entry below
measured endpoint: Inhibition of Tumour Growth, % - Leucemia P-388 PALT (%)

INSERT INTO measurements (compound, unit_tag, quantitative_readout) VALUES
  ('C=C1C(=O)OC2C1CCC1(C)OC13CC(Br)C(C)(Br)C23 (centres unmarked)', '%', 46.9),
  ('CN(C)CC1C(=O)OC2C1CCC1(C)OC13CC1OC1(C)C23 (centres unmarked) [Dimethylaminoepoxyarglabin (15b), dimethylaminoepoxyarglabin]', '%', 51.0),
  ('CC1=CCC23OC2(C)CCC2C(CN(C)C)C(=O)OC2C13 (centres unmarked) [Dimethylaminoarglabin (14b), dimethylaminoarglabin]', '%', 80.1),
  ('C=C1C(=O)OC2C1CCC(C)(Cl)C1(O)CC(Cl)C(C)(O)C21 (centres unmarked) [Dichlordihydroxyarglabin (3)]', '%', 92.1),
  ('CN(C)CC1C(=O)OC2C1CCC1(C)OC13CC1OC1(C)C23.Cl (centres unmarked) [dimethylaminoepoxyarglabin hydrochloride]', '%', 31.2);

From: patent US6770673B1
